- assay target: human α2AAR (Homo sapiens (Human), UniProt P08913)
- Sequence (P08913 whole entry): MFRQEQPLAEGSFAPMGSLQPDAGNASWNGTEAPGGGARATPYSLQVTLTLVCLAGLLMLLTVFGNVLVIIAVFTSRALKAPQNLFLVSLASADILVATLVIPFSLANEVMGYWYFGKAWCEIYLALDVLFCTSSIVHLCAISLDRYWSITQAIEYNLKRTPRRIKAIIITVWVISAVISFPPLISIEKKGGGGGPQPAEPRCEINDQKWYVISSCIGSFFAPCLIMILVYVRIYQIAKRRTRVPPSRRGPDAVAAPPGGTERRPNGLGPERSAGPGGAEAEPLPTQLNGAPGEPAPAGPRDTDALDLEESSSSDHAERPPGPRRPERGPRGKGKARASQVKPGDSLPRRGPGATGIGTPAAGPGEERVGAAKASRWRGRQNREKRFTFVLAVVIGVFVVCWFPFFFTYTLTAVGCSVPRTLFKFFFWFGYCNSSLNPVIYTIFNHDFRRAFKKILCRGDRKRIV
- run description: Gαi G protein activation, BRET biosensor assay in HEK293T cells
- protocol conditions: HEK-293T, read-out: Gαi Emax
Counter-ions that a name gives are not always drawn.
Attribute: Emax
assay readout: Emax (%)

compound	assay target	assay readout	unit info	readout number
Cc1cccc([C@H](C)c2cnc[nH]2)c1C [DEX, dexmedetomidine, reference compound]	human α2AAR (Homo sapiens (Human), UniProt P08913)	Emax	%	105
Cc1cc2[nH]ncc2cc1-c1ccc(N)nc1	human α2AAR (Homo sapiens (Human), UniProt P08913)	Emax	%	61
NC[C@H](O)c1ccc(O)c(O)c1 [NorEpi, norepinephrine, reference compound]	human α2AAR (Homo sapiens (Human), UniProt P08913)	Emax	%	100
Clc1ccc2cccc(Nc3ccncc3)c2c1 [PS75, TFA]	human α2AAR (Homo sapiens (Human), UniProt P08913)	Emax	%	82
Clc1cccc(Cl)c1N=C1NCCN1 [CLON, clonidine, reference compound]	human α2AAR (Homo sapiens (Human), UniProt P08913)	Emax	%	115
C1=C(c2ccc3c(c2)CC3)CNCC1	human α2AAR (Homo sapiens (Human), UniProt P08913)	Emax	%	74
Fc1cccc2c(Nc3ccncc3)cccc12	human α2AAR (Homo sapiens (Human), UniProt P08913)	Emax	%	93

====

Each item that follows carries a reported pKi.
- assay target: human α2AAR (Homo sapiens (Human), UniProt P08913)
- run description: Radioligand competition binding to human α2AAR (HEK293T membranes, [3H]RX82,1002)
- protocol conditions: human α2AAR; mean ± SEM (Table 3); read-out: Ki
pKi: −log10 of the molar value. Counter-ions that a name gives are not always drawn.
assay readout: pKi

molecule	assay readout	readout number
c1ccc2c(Oc3ccncc3)cccc2c1	pKi	5.74
O=C1CCc2c(cccc2Nc2ccncc2)N1	pKi	6.30
Clc1ccc2cccc(Nc3ccncc3)c2c1 [PS75, TFA]	pKi	8.09
c1cc(Nc2ccncc2)c2sccc2c1	pKi	8.14
O=C1NCCc2c(Nc3ccncc3)cccc21	pKi	5.92
COc1ccc2cccc(Nc3ccncc3)c2c1	pKi	6.62

====

- assay target: human α2AAR (Homo sapiens (Human), UniProt P08913)
- run description: Gαi G protein activation, BRET biosensor assay in HEK293T cells
- protocol conditions: Gi EC50 ± SE, BRET biosensor, human α2AAR (Table 3)
pEC50: −log10 of the molar value. Counter-ions that a name gives are not always drawn.
assay readout: pEC50

molecule	assay target	readout number
COc1ccc2cccc(Nc3ccncc3)c2c1	human α2AAR (Homo sapiens (Human), UniProt P08913)	7.00
O=C1NCCc2c(Nc3ccncc3)cccc21	human α2AAR (Homo sapiens (Human), UniProt P08913)	5.47
c1cc(Nc2ccncc2)c2sccc2c1	human α2AAR (Homo sapiens (Human), UniProt P08913)	8.04
Clc1ncc2ccccc2c1Nc1ccncc1	human α2AAR (Homo sapiens (Human), UniProt P08913)	7.85
Clc1ccc2cccc(Nc3ccncc3)c2c1 [PS75, TFA]	human α2AAR (Homo sapiens (Human), UniProt P08913)	8.32
O=C1CCc2c(cccc2Nc2ccncc2)N1	human α2AAR (Homo sapiens (Human), UniProt P08913)	6.08
Fc1cccc2c(Nc3ccncc3)cccc12	human α2AAR (Homo sapiens (Human), UniProt P08913)	8.39
